Values compiled from ChEMBL document CHEMBL4402510.

Target protein (sequence): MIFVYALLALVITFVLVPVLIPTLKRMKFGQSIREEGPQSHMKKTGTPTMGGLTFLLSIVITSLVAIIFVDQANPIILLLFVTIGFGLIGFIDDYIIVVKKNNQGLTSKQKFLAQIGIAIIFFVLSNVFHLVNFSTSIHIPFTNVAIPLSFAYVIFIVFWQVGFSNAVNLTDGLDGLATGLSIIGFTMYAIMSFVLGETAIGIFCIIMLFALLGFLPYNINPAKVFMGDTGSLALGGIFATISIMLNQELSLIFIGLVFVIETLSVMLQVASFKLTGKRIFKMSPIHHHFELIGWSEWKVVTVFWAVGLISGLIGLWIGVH
Exercise: state measured IC50 for each of the compounds provided.
State the answer as a number, implicitly in µM.

IC50 for CCCCCCCCCCCCCCCCC[C@H]1CN[C@@H]([C@H](O[C@@H]2O[C@H](CN)[C@@H](O)[C@H]2O)[C@H]2O[C@@H](n3ccc(=O)[nH]c3=O)[C@H](O)[C@@H]2O)C(=O)N(C)[C@@H]1C(=O)O is 3.8

IC50 for CC(=O)N[C@H]1CCN[C@H]([C@H](O[C@@H]2O[C@H](CN)[C@@H](O)[C@H]2O)[C@H]2O[C@@H](n3ccc(=O)[nH]c3=O)[C@H](O)[C@@H]2O)C1 is 4000

IC50 for CCCCCCCCCCCCCCCC(=O)N[C@@H]1CCN[C@@H]([C@H](O[C@@H]2O[C@H](CN)[C@@H](O)[C@H]2O)[C@H]2O[C@@H](n3ccc(=O)[nH]c3=O)[C@H](O)[C@@H]2O)C1 is 24
